Test system: johnsongrass (Sorghum halepense, SORHA)
experiment: Post-emerge greenhouse herbicide activity screening, phytotoxicity rating
Type: in vivo
details: 250 g ai/ha, 14 days after application
measure: SORHA phytotoxicity rating (0-100 scale)
Respond with the number and no other words.

molecule: O=[N+]([O-])c1ccccc1Oc1cc(-c2nn3c(c2Cl)CCCC3)c(F)cc1Cl [Compound 6-19]
measure: SORHA phytotoxicity rating (0-100 scale)
observed_result: 50
--
molecule: Cn1c(=S)n(C)c(=O)n(-c2cc(Oc3ccccc3)c(Cl)cc2F)c1=O [Compound 2-16]
measure: SORHA phytotoxicity rating (0-100 scale)
observed_result: 0
--
molecule: Cn1c(C(F)(F)F)cc(=O)n(-c2cc(Oc3ccccc3)c(Cl)cc2F)c1=S [Compound 1-47]
measure: SORHA phytotoxicity rating (0-100 scale)
observed_result: 0
--
molecule: Fc1cc(Cl)c(Oc2ncccn2)cc1-c1nn2c(c1Cl)CCCC2 [Compound 6-1]
measure: SORHA phytotoxicity rating (0-100 scale)
observed_result: 95
--
molecule: Fc1cc(Cl)c(Oc2ncccn2)cc1-c1nn2c(c1Br)CCCC2 [Compound 6-2]
measure: SORHA phytotoxicity rating (0-100 scale)
observed_result: 95
--
molecule: Cn1c(=S)n(C)c(=O)n(-c2cc(Oc3ncccn3)c(Cl)cc2F)c1=O [Compound 2-1]
measure: SORHA phytotoxicity rating (0-100 scale)
observed_result: 70

Task: State the recorded SORHA phytotoxicity rating (0-100 scale) for this entry: Cn1c(C(F)(F)F)cc(=O)n(-c2cc(Oc3ccccc3N)c(Cl)cc2F)c1=S [Compound 1-48]
Result: 0

Task: State the recorded SORHA phytotoxicity rating (0-100 scale) for this entry: Cn1c(C(F)(F)F)cc(=O)n(-c2cc(Oc3ccccc3)c(C#N)cc2F)c1=S [Compound 1-69]
Result: 0

Task: State the recorded SORHA phytotoxicity rating (0-100 scale) for this entry: Cn1c(C(F)(F)F)cc(=O)n(-c2cc(Oc3ccccc3C#N)c(Cl)cc2F)c1=S [Compound 1-66]
Result: 0

---

Tested on: soybean (Glycine max L., var. Pella 86, SOY)
experiment: Post-emerge greenhouse screening, crop safety (phytotoxicity rating)
Type: in vivo
details: 125 g ai/ha, 14 days after application
Recorded SOY crop damage, phytotoxicity rating (0-100 scale) values for a group of compounds are listed next.

Task: Fill in the recorded SOY crop damage, phytotoxicity rating (0-100 scale) for this compound, with soybean (Glycine max L., var. Pella 86, SOY) as test system: `N#Cc1c(-c2cc(Oc3ncccn3)c(Cl)cc2F)nn2c1CCCC2`
Result: 70

Task: Fill in the recorded SOY crop damage, phytotoxicity rating (0-100 scale) for this compound, with soybean (Glycine max L., var. Pella 86, SOY) as test system: `Cn1c(C(F)(F)F)cc(=O)n(-c2cc(Oc3ccccc3N)c(Cl)cc2F)c1=S`
Result: 0

Task: Fill in the recorded SOY crop damage, phytotoxicity rating (0-100 scale) for this compound, with soybean (Glycine max L., var. Pella 86, SOY) as test system: `Cn1c(=S)n(C)c(=O)n(-c2cc(Oc3ncccn3)c(Cl)cc2F)c1=O`
Result: 50
